measured_on: human 5-HT2C receptor (Homo sapiens, UniProt P28335, I156V/I160V/N158S)
Sequence (P28335 33-458 I156V/N158S/I160V limits assumed): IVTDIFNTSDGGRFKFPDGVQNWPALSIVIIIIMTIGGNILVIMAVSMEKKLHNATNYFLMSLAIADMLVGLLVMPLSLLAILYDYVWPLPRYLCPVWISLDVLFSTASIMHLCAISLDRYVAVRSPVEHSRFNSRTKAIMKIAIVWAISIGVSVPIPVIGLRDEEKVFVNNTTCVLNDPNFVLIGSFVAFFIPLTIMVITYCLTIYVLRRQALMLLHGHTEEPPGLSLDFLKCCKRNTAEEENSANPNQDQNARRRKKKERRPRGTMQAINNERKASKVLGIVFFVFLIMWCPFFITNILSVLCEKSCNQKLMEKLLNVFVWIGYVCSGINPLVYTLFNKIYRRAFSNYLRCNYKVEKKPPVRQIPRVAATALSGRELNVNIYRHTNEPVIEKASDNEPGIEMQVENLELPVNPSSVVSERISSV
assay_details: cell-based
We label by threshold. Values of EC50 strictly beneath 90 nM are True. Values of 90 nM and up are False.

Please review the following examples before continuing.
{"compound": "O=C(C1CN(c2c3c(nc4ccnn24)CCNCC3)C1)N1CCCC2(CCc3ccccc32)C1 (centres unmarked) [Example 31.173]", "assigned_category": "False"}
{"compound": "c1ccc(C2CCN(c3c4c(nc5ccnn35)CCNCC4)C2)cc1 (centres unmarked) [Example 1.26]", "assigned_category": "False"}
{"compound": "OC1CCCN(c2c3c(nc4ccnn24)CCNCC3)C1 (centres unmarked) [Example 1.38]", "assigned_category": "False"}
{"compound": "CC1(C)CCCN(C(=O)C2CN(c3c4c(nc5ccnn35)CCNCC4)C2)C1 [Example 31.30]", "assigned_category": "False"}
{"compound": "c1cc2nc3c(c(N4CCCC4)n2n1)CCNCC3 [Example 7.1]", "assigned_category": "False"}
{"compound": "CC(c1ccccc1)n1c(C2CN(c3c4c(nc5ccnn35)CCNCC4)C2)nc2cc(Cl)ccc21 (centres unmarked) [Example 34.37]", "assigned_category": "False"}
{"compound": "COc1ccc2c(c1)CCN2C(=O)CC1CN(c2c3c(nc4ccnn24)CCNCC3)C1 [Example 33.3]", "assigned_category": "True"}
{"compound": "CC(=O)N(C)c1ccc(OC2CN(c3c4c(nc5ccnn35)CCNCC4)C2)cc1 [Example 35.28]", "assigned_category": "False"}
{"compound": "Cc1cccc(CN(C)C(=O)C2CN(c3c4c(nc5ccnn35)CCNCC4)C2)n1 [Example 31.208]", "assigned_category": "True"}

As a next step, examine the compound that follows.
# input Is it true that EC50 reported for CN(C)[C@H]1CC[C@H](NC(=O)C2CN(c3c4c(nc5ccnn35)CCNCC4)C2)CC1 [Example 37.98] is less than 90 nM?
# output True

----------
// log10 EC50 lookup, one value per entry
measured_on: human 5-HT2C receptor (Homo sapiens, UniProt P28335, I156V/I160V/N158S)
assay_details: cell-based
Note: values are log10 of EC50 expressed in nM.

# input // query log10 EC50 value for entry Fc1ccc2[nH]c(C3CN(c4c5c(nc6ccnn46)CCNCC5)C3)nc2c1F
# output 2.77

# input I would be grateful if you could share the reported log10 EC50 for c1ccc(C2CCN2c2c3c(nc4ccnn24)CCNCC3)cc1 (centres unmarked) .
# output 3.72

# input So what does the record say about log10 EC50 for Cc1cnn2c(N3CC(C(=O)N4CCc5c(cccc5C(F)(F)F)C4)C3)c3c(nc12)CCNCC3 ?
# output 1.90

# input I have this compound here, O=C(C1CN(c2c3c(nc4ccnn24)CCNCC3)C1)N1CC(Cc2ccccc2)C1 , and I need its recorded log10 EC50.
# output 1.91

# input Find the recorded log10 EC50 belonging to COc1cc(F)ccc1OCC1CN(c2c3c(nc4ccnn24)CCNCC3)C1 and report it.
# output 0.78

----------
Reported pEC50 by item:
measured_on: human 5-HT2C receptor (Homo sapiens, UniProt P28335, I156V/I160V/N158S)
assay_details: cell-based
// field semantics: pEC50 = negative decimal log of concentration (mol/L)

Recorded results for 5 compounds are shown here.
{"compound": "COc1ccc(N(C)C(=O)C2CN(c3c4c(nc5ccnn35)CCNCC4)C2)cc1", "reported_value": 5.67}
{"compound": "O=C(NC1CCC(C(F)(F)F)CC1)C1CN(c2c3c(nc4ccnn24)CCNCC3)C1 (centres unmarked)", "reported_value": 7.31}
{"compound": "Cc1ncccc1OC1CN(c2c3c(nc4ccnn24)CCNCC3)C1", "reported_value": 6.92}
{"compound": "c1ccc(CCn2c(C3CN(c4c5c(nc6ccnn46)CCNCC5)C3)nc3ccccc32)cc1", "reported_value": 6.45}
{"compound": "CN1CCc2nc3ccnn3c(N3CC(C(=O)N4CCNC(=O)C4)C3)c2CC1", "reported_value": 6.44}

# input Tell me the measured pEC50 of O=C(NCCF)C1CN(c2c3c(nc4ccnn24)CCNCC3)C1 , please.
# output 7.04

# input Form field: reported pEC50 of CC1(C)CC2CC(C)(CN2C(=O)C2CN(c3c4c(nc5ccnn35)CCNCC4)C2)C1 (centres unmarked)
# output 5.82

# input Query: pEC50; subject: C1=C(c2c3c(nc4ccnn24)CCNCC3)CCNC1
# output 6.23

Values compiled from patent US20120165304A1.
